Sourced from ChEMBL document CHEMBL4507316

Molecular target: Sigma intracellular receptor 2 (Homo sapiens, UniProt Q5BJF2)
Sequence (Q5BJF2 whole entry): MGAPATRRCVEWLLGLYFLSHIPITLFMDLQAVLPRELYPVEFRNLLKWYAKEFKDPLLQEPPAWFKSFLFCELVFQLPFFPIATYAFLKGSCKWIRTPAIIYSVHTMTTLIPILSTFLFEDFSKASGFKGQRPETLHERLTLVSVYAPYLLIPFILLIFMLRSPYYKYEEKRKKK
Experiment: GPCRScan assay: inhibition of Sigma 2
Parameters: radioligand conc. used [nm] 5.0, parental cells HEKT
Conditions: read-out: Ki
MEASUREMENT LABEL: pKi
Keep it numeric: pKi is minus log10 of the concentration in mol/L.

// field: pKi; key: O=C1c2ccc(Nc3ccc(F)cc3F)cc2CCc2ccc(OC[C@H](O)CO)cc21 [Skepinone-L] ; value = 5.47

###

Biological target: 5-hydroxytryptamine receptor 2A (Homo sapiens)
Sequence (P28223 whole entry): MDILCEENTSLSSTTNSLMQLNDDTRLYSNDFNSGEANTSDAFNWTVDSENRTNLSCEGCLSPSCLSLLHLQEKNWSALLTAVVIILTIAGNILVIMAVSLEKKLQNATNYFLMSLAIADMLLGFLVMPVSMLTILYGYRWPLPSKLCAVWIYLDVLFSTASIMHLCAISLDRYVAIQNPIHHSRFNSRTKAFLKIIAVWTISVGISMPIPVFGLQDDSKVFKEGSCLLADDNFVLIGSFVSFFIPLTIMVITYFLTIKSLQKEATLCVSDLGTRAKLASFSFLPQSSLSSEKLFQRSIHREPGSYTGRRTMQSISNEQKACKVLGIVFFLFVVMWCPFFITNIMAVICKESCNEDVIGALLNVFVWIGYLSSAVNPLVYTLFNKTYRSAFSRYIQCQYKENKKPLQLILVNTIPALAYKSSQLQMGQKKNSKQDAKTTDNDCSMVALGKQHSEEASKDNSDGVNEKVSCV
Assay: GPCRScan assay: inhibition of 5-HT2A
Design: radioligand conc. used [nm] 1.2 – 2.4, parental cells HEKT
Settings: read-out: Ki
MEASUREMENT LABEL: Ki (µM)
Give the value in µM but do not write µM after it.

Value (Ki, 5-hydroxytryptamine receptor 2A (Homo sapiens)) for record O=C1c2ccc(Nc3ccc(F)cc3F)cc2CCc2ccc(OC[C@H](O)CO)cc21 [Skepinone-L] = 3.71
